B1: F1*; the commonest letter at each place (parent)
chain: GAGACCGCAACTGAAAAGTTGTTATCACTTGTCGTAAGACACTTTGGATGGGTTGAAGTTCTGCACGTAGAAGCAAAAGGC

Variants of: B1
protocol_notes: fraction ligated after 30 min (ligated reads / total reads); higher = more ligase activity
stated_conditions: with F1*sub RNA substrate (template-directed ligation), 42 °C
Assign Satisfied to entries whose fraction ligated meets or exceeds 0.8; assign Not satisfied to the rest.

## Input Answer whether fraction ligated of A41T G47C is greater than or equal to 0.8.
## Output Not satisfied

## Input Answer whether fraction ligated of A37G C42T is greater than or equal to 0.8.
## Output Satisfied

## Input Answer whether fraction ligated of T43C T44G is greater than or equal to 0.8.
## Output Satisfied

## Input Answer whether fraction ligated of A27C T30G is greater than or equal to 0.8.
## Output Satisfied

## Input Answer whether fraction ligated of A27T T32C is greater than or equal to 0.8.
## Output Not satisfied

## Input Answer whether fraction ligated of A39T C42A is greater than or equal to 0.8.
## Output Satisfied

## Input Answer whether fraction ligated of C26G A36G is greater than or equal to 0.8.
## Output Not satisfied

## Input Answer whether fraction ligated of C26G T32C is greater than or equal to 0.8.
## Output Not satisfied

## Input Answer whether fraction ligated of T25A A56C is greater than or equal to 0.8.
## Output Not satisfied

## Input Answer whether fraction ligated of A36T G50A is greater than or equal to 0.8.
## Output Not satisfied

## Input Answer whether fraction ligated of C40G T45C is greater than or equal to 0.8.
## Output Not satisfied

## Input Answer whether fraction ligated of A24C C40G is greater than or equal to 0.8.
## Output Not satisfied

## Input Answer whether fraction ligated of T29A T45A is greater than or equal to 0.8.
## Output Not satisfied

## Input Answer whether fraction ligated of T32G T35G is greater than or equal to 0.8.
## Output Satisfied

## Input Answer whether fraction ligated of A24T C28A is greater than or equal to 0.8.
## Output Not satisfied

## Input Answer whether fraction ligated of G47C G55A is greater than or equal to 0.8.
## Output Not satisfied

## Input Answer whether fraction ligated of A39C C42A is greater than or equal to 0.8.
## Output Satisfied

## Input Answer whether fraction ligated of T23A A24G is greater than or equal to 0.8.
## Output Not satisfied

## Input Answer whether fraction ligated of A24G G34C is greater than or equal to 0.8.
## Output Not satisfied

## Input Answer whether fraction ligated of C26T G31C is greater than or equal to 0.8.
## Output Not satisfied

## Input Answer whether fraction ligated of T25A is greater than or equal to 0.8.
## Output Not satisfied

## Input Answer whether fraction ligated of T45C A48G is greater than or equal to 0.8.
## Output Not satisfied

## Input Answer whether fraction ligated of T32G A39C is greater than or equal to 0.8.
## Output Satisfied

## Input Answer whether fraction ligated of A27G C33G is greater than or equal to 0.8.
## Output Satisfied

## Input Answer whether fraction ligated of G46A G50A is greater than or equal to 0.8.
## Output Not satisfied

## Input Answer whether fraction ligated of T32G G46C is greater than or equal to 0.8.
## Output Not satisfied

## Input Answer whether fraction ligated of C42T G47C is greater than or equal to 0.8.
## Output Not satisfied

## Input Answer whether fraction ligated of T45C G55A is greater than or equal to 0.8.
## Output Not satisfied

## Input Answer whether fraction ligated of A48G A56C is greater than or equal to 0.8.
## Output Not satisfied

## Input Answer whether fraction ligated of C42G G50A is greater than or equal to 0.8.
## Output Not satisfied

## Input Answer whether fraction ligated of G50T is greater than or equal to 0.8.
## Output Not satisfied

## Input Answer whether fraction ligated of T29C T49C is greater than or equal to 0.8.
## Output Not satisfied

## Input Answer whether fraction ligated of G34T A37T is greater than or equal to 0.8.
## Output Satisfied

## Input Answer whether fraction ligated of T35G C40A is greater than or equal to 0.8.
## Output Satisfied

## Input Answer whether fraction ligated of T29A C40T is greater than or equal to 0.8.
## Output Satisfied

## Input Answer whether fraction ligated of A27T G55C is greater than or equal to 0.8.
## Output Not satisfied

## Input Answer whether fraction ligated of T23C A36C is greater than or equal to 0.8.
## Output Satisfied

## Input Answer whether fraction ligated of G46C A48C is greater than or equal to 0.8.
## Output Not satisfied

## Input Answer whether fraction ligated of C26G A56T is greater than or equal to 0.8.
## Output Not satisfied

## Input Answer whether fraction ligated of T45A G46A is greater than or equal to 0.8.
## Output Not satisfied

## Input Answer whether fraction ligated of C28G A41C is greater than or equal to 0.8.
## Output Not satisfied

## Input Answer whether fraction ligated of T32A A48C is greater than or equal to 0.8.
## Output Not satisfied

## Input Answer whether fraction ligated of A39C A48T is greater than or equal to 0.8.
## Output Not satisfied
